- Tested on: Pasteurella multocida 40G
- test_name: MIC, conventional broth-dilution microtiter test
- Format: cell-based
- conditions_used: broth-dilution microtiter; Pasteurella multocida 40G; read-out: MIC
quantity: MIC (µg/mL)

# compound, bound_type, quantitative_readout
data = [
    ("CCC1CC(C)C(=O)C=CC(C)=CC(CN2CCCCCCC2)C(CC)OC(=O)CC(O)C(C)C1OC1OC(C)C(OC(C)=O)C(N(C)C)C1OC(C)=O (stereo not drawn)", "=", 1.56),
    ("CCC1CC(C)C(=O)C=CC(C)=CC(COc2cccnc2)C(CC)OC(=O)CC(O)C(C)C1OC1OC(C)C(O)C(N(C)C)C1O (stereo not drawn) [Compound 46, 23-O-(3-Pyridyl)-20-deoxy-20-dihydro-OMT]", "=", 12.5),
    ("CCC1CC(C)C(=O)C=CC(C)=CC(COc2cccc(N(C)C)c2)C(CC)OC(=O)CC(O)C(C)C1OC1OC(C)C(O)C(N(C)C)C1O (stereo not drawn)", "=", 25),
    ("CCC1OC(=O)CC(O)C(C)C(OC2OC(C)C(O)C(N(C)C)C2O)C(CCNCCc2ccccc2)CC(C)C(=O)C=CC(C)=CC1CO (stereo not drawn)", "=", 6.25),
    ("CCC1OC(=O)CC(O)C(C)C(OC2OC(C)C(OC3CC(C)(O)C(O)C(C)O3)C(N(C)C)C2O)C(CCN2C(=O)c3ccccc3C2=O)CC(C)C(=O)C=CC(C)=CC1CO (stereo not drawn) [Compound 17, 20-N-Phthalimido-20-deoxy-20-dihydro-DMT]", ">", 50),
    ("CCC1OC(=O)CC(O)C(C)C(OC2OC(C)C(O)C(N(C)C)C2O)C(CCN2C(=O)c3ccccc3C2=O)CC(C)C(=O)C=CC(C)=CC1CN1C(=O)c2ccccc2C1=O (stereo not drawn)", ">", 50),
]
